FYI, the data here is from ChEMBL document CHEMBL1287771.

system: Staphylococcus aureus; experiment: Antibacterial activity against efflux-resistant Staphylococcus aureus B0331 by agar microdilution method; format: functional
EXPERIMENTAL_READOUT: log10(MIC) (log10 of the value in µg/mL)
Scale type: logarithmic (base 10). Underlying MIC unit: µg/mL.

Below, each entry is followed by its recorded log10(MIC) result.
CC[C@H]1OC(=O)[C@H](C)C(=O)[C@H](C)[C@@H](O[C@@H]2O[C@H](C)C[C@H](N(C)C)[C@H]2O)[C@](C)(OC[C@@H](O)CN2CCN(c3ccc4c(c3F)c(=O)c(C(=O)O)cn4C3CC3)CC2)C[C@@H](C)NC(=O)[C@H](C)[C@H](O)[C@@]1(C)O; -0.60
CC[C@H]1OC(=O)[C@H](C)C(=O)[C@H](C)[C@@H](O[C@H]2C[C@H](O)[C@@H](N(C)C)[C@@H](C)O2)[C@](C)(OC/C=C/c2cnc3ccccc3c2)C[C@@H](C)/C(=N\OC(C)=O)[C@H](C)[C@@H](O)[C@]1(C)O; 0.00
CC[C@H]1OC(=O)[C@H](C)C(=O)[C@H](C)[C@@H](O[C@@H]2O[C@H](C)C[C@H](N(C)C)[C@H]2O)[C@](C)(OC[C@H](O)CN2CCN(c3ccc4c(c3F)c(=O)c(C(=O)O)cn4C3CC3)CC2)C[C@@H](C)NC(=O)[C@H](C)[C@H](O)[C@@]1(C)O; -0.30

Using the record for "CC[C@H]1OC(=O)[C@H](C)C(=O)[C@H](C)[C@@H](O[C@H]2C[C@H](O)[C@@H](N(C)C)[C@@H](C)O2)[C@](C)(OC/C=C/c2cnc3ccccc3c2)C[C@@H](C)/C(=N\O)[C@H](C)[C@@H](O)[C@]1(C)O" , report its log10(MIC).
-0.30

Please answer likewise for "CC[C@H]1OC(=O)[C@H](C)[C@@H](O[C@@H]2C[C@@](C)(OC)[C@@H](O)[C@H](C)O2)[C@H](C)[C@@H](O[C@@H]2O[C@H](C)C[C@H](N(C)C)[C@H]2O)[C@](C)(OC/C=C/N[C@H](C)Cc2ccc([N+](=O)[O-])cc2)C[C@@H](C)NC(=O)[C@H](C)[C@H](O)[C@@]1(C)O"
1.81

How about "CC[C@H]1OC(=O)[C@H](C)C(=O)[C@H](C)[C@@H](O[C@@H]2O[C@H](C)C[C@H](N(C)C)[C@H]2O)[C@](C)(OC/C=C/c2cnc3ccccc3c2)C[C@@H](C)C(=O)N[C@H](C)[C@H](O)[C@@]1(C)OC/C=C/c1cnc2ccccc2c1" ?
-0.30

Note, next up: "CC[C@H]1OC(=O)[C@H](C)C(=O)[C@H](C)[C@@H](O[C@@H]2O[C@H](C)C[C@H](N(C)C)[C@H]2O)[C@](C)(OC/C=C/c2ccnc3ccccc23)C[C@@H](C)NC(=O)[C@H](C)[C@H](O)[C@@]1(C)O"
0.30

Now consider CC[C@H]1OC(=O)[C@H](C)C(=O)[C@H](C)[C@@H](O[C@@H]2O[C@H](C)C[C@H](N(C)C)[C@H]2O)[C@](C)(OCC(O)CNc2ccc3ncccc3c2)C[C@@H](C)NC(=O)[C@H](C)[C@H](O)[C@@]1(C)O (stereo not given in full) .
0.00

Try the molecule CC[C@H]1OC(=O)[C@H](C)C(=O)[C@H](C)[C@@H](O[C@@H]2O[C@H](C)C[C@H](N(C)C)[C@H]2O)[C@](C)(OCC(O)CNCCNc2cc3c(=O)c(C(=O)O)cn(C4CC4)c3cc2Cl)C[C@@H](C)NC(=O)[C@H](C)[C@H](O)[C@@]1(C)O (stereo not given in full)
-0.30

----------
system: Staphylococcus aureus; experiment: Antibacterial activity against inducible macrolide-lincosamide-streptogramin B-resistant Staphylococcus aureus B0538 by agar microdilution method; format: functional
EXPERIMENTAL_READOUT: MIC

Endpoint output: MIC of "CC[C@H]1OC(=O)[C@H](C)[C@@H](O[C@@H]2C[C@@](C)(OC)[C@@H](O)[C@H](C)O2)[C@H](C)[C@@H](O[C@@H]2O[C@H](C)C[C@H](N(C)C)[C@H]2O)[C@](C)(OC/C=C/N[C@H](C)Cc2ccc([N+](=O)[O-])cc2)C[C@@H](C)NC(=O)[C@H](C)[C@H](O)[C@@]1(C)O" . Value?
> 64 µg/mL

----------
system: Streptococcus pneumoniae; experiment: Antibacterial activity against constitutive macrolide-lincosamide-streptogramin B-resistant Streptococcus pneumoniae B0627 by agar microdilution method; type: functional
MIC values, listed per item

In the examples that follow, each entry is paired with its recorded MIC.
CC[C@H]1OC(=O)[C@H](C)C(=O)[C@H](C)[C@@H](O[C@@H]2O[C@H](C)C[C@H](N(C)C)[C@H]2O)[C@](C)(OCC=Cc2cnc3ccccc3c2)C[C@@H](C)C(=O)[C@H](C)[C@H]2NC(=O)O[C@@]21C; ≤ 0.125 µg/mL
CC[C@H]1OC(=O)[C@H](C)C(=O)[C@H](C)[C@@H](O[C@@H]2O[C@H](C)C[C@H](N(C)C)[C@H]2O)[C@](C)(OC/C=C/c2cnc3ccccc3c2)C[C@@H](C)NC(=O)[C@H](C)[C@H](O)[C@@]1(C)O; 16 µg/mL
CC[C@H]1OC(=O)[C@H](C)C(=O)[C@H](C)[C@@H](O[C@@H]2O[C@H](C)C[C@H](N(C)C)[C@H]2O)[C@](C)(OCC(O)CNCCc2ccccc2)C[C@@H](C)NC(=O)[C@H](C)[C@H](O)[C@@]1(C)O (stereo partly drawn); 8 µg/mL
CC[C@H]1OC(=O)[C@H](C)C(=O)[C@H](C)[C@@H](O[C@@H]2O[C@H](C)C[C@H](N(C)C)[C@H]2O)[C@](C)(OCC(O)CN(C)CCc2ccc([N+](=O)[O-])cc2)C[C@@H](C)NC(=O)[C@H](C)[C@H](O)[C@@]1(C)O (stereo partly drawn); ≤ 0.125 µg/mL
CC[C@H]1OC(=O)[C@H](C)C(=O)[C@H](C)[C@@H](O[C@@H]2O[C@H](C)C[C@H](N(C)C)[C@H]2O)[C@](C)(OC)C[C@@H](C)C(=O)[C@H](C)[C@H]2N(CCCCn3cnc(-c4cccnc4)c3)C(=O)O[C@]12C; ≤ 0.125 µg/mL
CC[C@H]1OC(=O)[C@H](C)C(=O)[C@H](C)[C@@H](O[C@@H]2O[C@H](C)C[C@H](N(C)C)[C@H]2O)[C@](C)(OCC(O)CNCC(C)C)C[C@@H](C)NC(=O)[C@H](C)[C@H](O)[C@@]1(C)O (stereo partly drawn); > 64 µg/mL

MIC for "CC[C@H]1OC(=O)[C@H](C)C(=O)[C@H](C)[C@@H](O[C@@H]2O[C@H](C)C[C@H](N(C)C)[C@H]2O)[C@](C)(OC/C=C/c2cnc3ccccc3c2)C[C@@H](C)C(=O)N[C@H](C)[C@H](O)[C@@]1(C)O" ?
64 µg/mL

// query: CC[C@H]1OC(=O)[C@H](C)C(=O)[C@H](C)[C@@H](O[C@@H]2O[C@H](C)C[C@H](N(C)C)[C@H]2O)[C@](C)(OCCCC2CNc3ccccc3C2)C[C@@H](C)NC(=O)[C@H](C)[C@H](O)[C@@]1(C)O (stereo partly drawn)
64 µg/mL

----------
test system: Streptococcus pneumoniae; experiment: Antibacterial activity against constitutive macrolide-lincosamide-streptogramin B-resistant Streptococcus pneumoniae B0627 by agar microdilution method; assay type: functional
EXPERIMENTAL_READOUT: MIC (µg/mL)
Hi! Could you send only the number? It should be in µg/mL, unit omitted.

CC[C@H]1OC(=O)[C@H](C)C(=O)[C@H](C)[C@@H](O[C@@H]2O[C@H](C)C[C@H](N(C)C)[C@H]2O)[C@](C)(OCC(O)CNCCc2cccnc2)C[C@@H](C)NC(=O)[C@H](C)[C@H](O)[C@@]1(C)O (some centres not stated); 2

Now consider a different compound.
Any idea what MIC was measured for "CC[C@H]1OC(=O)[C@H](C)C(=O)[C@H](C)[C@@H](O[C@@H]2O[C@H](C)C[C@H](N(C)C)[C@H]2O)[C@](C)(OC/C=C/c2cnc3ccccc3c2)C[C@@H](C)NC(=O)[C@H](C)[C@@H]2OC(=O)O[C@]12C" ?
4

----------
test system: Streptococcus pyogenes; experiment: Antibacterial activity against efflux-resistant Streptococcus pyogenes B0545 by agar microdilution method; format: functional
EXPERIMENTAL_READOUT: MIC
Put down the number, then write its unit next to it.

What does the data say about its MIC? Entry: "CC[C@H]1OC(=O)[C@H](C)C(=O)[C@H](C)[C@@H](O[C@H]2C[C@H](O)[C@@H](N(C)C)[C@@H](C)O2)[C@](C)(OC/C=C/c2cnc3ccccc3c2)C[C@@H](C)/C(=N\OC(C)=O)[C@H](C)[C@@H](O)[C@]1(C)O"
0.5 µg/mL
